Just for reference, paper PMC12749127 is where these values come from.

Molecular target: recombinant human inositol monophosphatase 1 (IMPA1) (Homo sapiens, UniProt P29218)
Sequence (P29218 whole entry): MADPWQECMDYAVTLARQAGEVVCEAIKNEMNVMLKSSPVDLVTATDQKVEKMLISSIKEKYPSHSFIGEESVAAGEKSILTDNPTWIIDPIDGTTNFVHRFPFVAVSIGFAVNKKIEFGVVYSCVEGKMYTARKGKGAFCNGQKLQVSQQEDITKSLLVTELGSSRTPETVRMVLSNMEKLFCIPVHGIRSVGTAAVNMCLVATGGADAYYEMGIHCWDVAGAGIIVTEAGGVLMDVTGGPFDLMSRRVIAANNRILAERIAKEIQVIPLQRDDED
Experiment: In vitro enzymatic assay of IMPA activity
observed.property: pIC50
# pIC50 is unitless: minus log10 of the molar concentration; print number only

Record summary for O=c1c2ccccc2[se]n1-c1ccccc1 : reported pIC50 = 6.02
